Let's look at some binders and their measured koff.
experimental-target: T1, recombinant human TGF-β RII/Fc chimera protein (human, UniProt P37173 24-159)
T1 construct: range 24-159; Made in HEK-F cells; Biotinylated where it was put on SA chips, otherwise captured by anti-human IgG; also called human TGFbRII/Fc; hRII-Fc; not shown: Fc region of human IgG1
T1 sequence (P37173 24-159 limits assumed, change not shown): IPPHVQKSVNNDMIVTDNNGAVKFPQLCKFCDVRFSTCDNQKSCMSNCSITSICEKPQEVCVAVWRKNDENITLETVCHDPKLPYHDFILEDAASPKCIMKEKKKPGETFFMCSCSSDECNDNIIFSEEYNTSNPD
procedure-text: SPR Biacore T200, receptor-Fc captured by anti-human IgG, dAb as analyte, 1:1 model

binder	koff / s⁻¹
DOM23h-271-131 (DOM23h-271-123 + C-terminal Alanine + 61N) (VHH, human VH dAb) VHH: EVQLLESGGGLVQPGGSLRLSCAASGSTFTEYRMWWVRQAPGKGLEWVSAIEPIGHRTYYANSVKGRFTISRDNSKNTLYLQMNSLRAEDTAVYYCAKQAPGEKWARRWDLDYWGQGTLVTVSS	0.000136
DOM23h-271-132 (DOM23h-271-123 + C-terminal Alanine + 64R) (VHH, human VH dAb) VHH: EVQLLESGGGLVQPGGSLRLSCAASGSTFTEYRMWWVRQAPGKGLEWVSAIEPIGHRTYYADSVRGRFTISRDNSKNTLYLQMNSLRAEDTAVYYCAKQAPGEKWARRWDLDYWGQGTLVTVSS	0.000222
DOM23h-271-130 (DOM23h-271-123 + C-terminal Alanine) (VHH, human VH dAb) VHH: EVQLLESGGGLVQPGGSLRLSCAASGSTFTEYRMWWVRQAPGKGLEWVSAIEPIGHRTYYADSVKGRFTISRDNSKNTLYLQMNSLRAEDTAVYYCAKQAPGEKWARRWDLDYWGQGTLVTVSS	0.000309

Each recorded value in this set is attributed to patent US20150361176A1.
